biological target: UniProt Q8ILY1; experiment: Fluorescence-based high-throughput DNA polymerase assay (molecular beacon), primary screen and dose-response; type: biochemical; settings: DRC-1; 180'; concentration 2.5;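 also: test concentration in µM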
OBSERVABLE: % inhibition apPOL 180' (%)
Record the value in %, omitting the unit from your answer.

Asked: Bench note: what % inhibition apPOL 180' did CCCCSc1nnc2c(n1)OC(c1ccc([N+](=O)[O-])o1)Nc1ccccc1-2 (centres unmarked) show?
Given back: 8.192

Asked: Bench note: what % inhibition apPOL 180' did CCCCCCCCCCCC1SCC(C(=O)O)N1C(C)=O (centres unmarked) show?
Given back: -2.715

Asked: Bench note: what % inhibition apPOL 180' did COc1ccccc1CCC(=O)N1CCc2c(nc3cc(-c4ccccc4)[nH]n3c2=O)C1 show?
Given back: -3.58

Asked: Bench note: what % inhibition apPOL 180' did O=C(NNC(=O)c1ccc(Cl)cc1)C(=O)NNC(=O)c1ccc(Cl)cc1 show?
Given back: -4.906

Asked: Bench note: what % inhibition apPOL 180' did O=C(c1c[nH]c2ncccc12)N1CCCC1 [Molecule 63, O=C(c1c[nH]c2c1cccn2)N1CCCC1] show?
Given back: 3.366

Asked: Bench note: what % inhibition apPOL 180' did O=c1[nH]c2ccc(Br)cc2c(-c2ccccc2)c1C1=NNC(c2ccco2)C1 (centres unmarked) show?
Given back: 0.7615

Asked: Bench note: what % inhibition apPOL 180' did CC(C)(C)c1cc(C(=O)C(C#N)=NNc2cccc(Cl)c2)no1 show?
Given back: 9.726

Asked: Bench note: what % inhibition apPOL 180' did Cc1ncc(CSc2nc(C(C)(C)C)cs2)c(CO)c1O show?
Given back: -1.351

Asked: Bench note: what % inhibition apPOL 180' did O=[N+]([O-])c1ccc(/C=C/c2ccc3ccccc3n2)o1 show?
Given back: 4.404

Asked: Bench note: what % inhibition apPOL 180' did O=C1N=C(Nc2cccc(Cl)c2Cl)S/C1=C\c1ccco1 [Molecule 3, O=C1N=C(S/C/1=C\c1ccco1)Nc1cccc(c1Cl)Cl] show?
Given back: 3.99

Asked: Bench note: what % inhibition apPOL 180' did Cc1cccc(CC(=O)N2CCc3c(nc4cc(-c5ccccc5)[nH]n4c3=O)C2)c1 show?
Given back: -4

Asked: Bench note: what % inhibition apPOL 180' did O=C(NCC1CCN(C2CCCC2)CC1)C(=O)NC1CCCC1 show?
Given back: 10.6167

Asked: Bench note: what % inhibition apPOL 180' did O=C1CCCC2=C1C(c1ccccn1)C1=C(CCCC1=O)O2 show?
Given back: 5.61

Asked: Bench note: what % inhibition apPOL 180' did CCCCC(=O)N1CCc2c(nc3cc(-c4ccccc4Cl)[nH]n3c2=O)C1 show?
Given back: -3.183

Asked: Bench note: what % inhibition apPOL 180' did O=C(Nc1cccc(Cl)c1)Nc1nnc(-c2ccncc2)s1 show?
Given back: 0.3318

Asked: Bench note: what % inhibition apPOL 180' did Cc1cccc2c(C(=O)NC(C)C)cc(N(C)C)nc12 show?
Given back: 2.5191

Asked: Bench note: what % inhibition apPOL 180' did COc1ccc(C(=O)Nc2cccc(-c3nc4ncccc4o3)c2)cc1[N+](=O)[O-] show?
Given back: -1.663

----------
target: P. falciparum apicoplast DNA polymerase (Pf-apPOL) (Plasmodium falciparum); assay: Fluorescence-based high-throughput DNA polymerase assay (molecular beacon), primary screen and dose-response; assay type: biochemical; details: DRC-1; 180'; concentration 5;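 also: test concentration in µM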
Sequence (Q8ILY1 entry or part of it): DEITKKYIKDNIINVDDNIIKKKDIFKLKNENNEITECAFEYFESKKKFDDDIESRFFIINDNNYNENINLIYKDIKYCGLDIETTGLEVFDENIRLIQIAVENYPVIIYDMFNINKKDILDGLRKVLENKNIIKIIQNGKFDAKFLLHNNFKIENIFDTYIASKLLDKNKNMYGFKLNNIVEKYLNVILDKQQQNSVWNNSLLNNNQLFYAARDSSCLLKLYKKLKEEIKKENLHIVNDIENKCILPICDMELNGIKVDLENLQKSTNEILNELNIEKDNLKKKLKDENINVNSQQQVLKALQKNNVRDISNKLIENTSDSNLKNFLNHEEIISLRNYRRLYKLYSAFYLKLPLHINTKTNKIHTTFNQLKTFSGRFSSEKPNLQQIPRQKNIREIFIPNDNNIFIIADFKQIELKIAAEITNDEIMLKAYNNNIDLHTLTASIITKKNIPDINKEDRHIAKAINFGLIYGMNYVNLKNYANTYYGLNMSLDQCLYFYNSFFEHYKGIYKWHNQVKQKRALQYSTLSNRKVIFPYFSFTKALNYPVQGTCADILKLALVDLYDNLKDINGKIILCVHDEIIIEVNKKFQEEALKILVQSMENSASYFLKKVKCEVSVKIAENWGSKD
OBSERVABLE: % inhibition apPOL 180' (%)
Record the value in %, omitting the unit from your answer.

Asked: Bench note: what % inhibition apPOL 180' did COc1cc(/C=C2\S/C(=N/C(C)=O)NC2=O)cc(Br)c1OCC(=O)O show?
Given back: -7.5244

Asked: Bench note: what % inhibition apPOL 180' did O=C(Nc1ncc([N+](=O)[O-])s1)c1ccc2c(c1)C(=O)N(N1C(=O)c3ccccc3C1=O)C2=O show?
Given back: 6.201

Asked: Bench note: what % inhibition apPOL 180' did CCC(C)NC(=O)c1cc(NC(C)=O)cc2nc(C)ccc12 (stereo not drawn) show?
Given back: -1.48

Asked: Bench note: what % inhibition apPOL 180' did O=C(O)c1c(F)c(F)c(-c2c(F)c(F)c(C(=O)O)c(F)c2F)c(F)c1F show?
Given back: 0.5684

Asked: Bench note: what % inhibition apPOL 180' did O=C(Nc1ccc2c(c1)Cc1cc(NC(=O)c3ccco3)ccc1-2)c1ccco1 show?
Given back: 0.08289

Asked: Bench note: what % inhibition apPOL 180' did Cc1nn(CC(=O)NCCSCc2ccco2)c(C)c1Br show?
Given back: -1.314

Asked: Bench note: what % inhibition apPOL 180' did CN(C)S(=O)(=O)Oc1ccc(-c2noc(-c3ccc(Oc4cc(Cl)cc(Cl)c4)o3)n2)cc1 show?
Given back: 1.378

Asked: Bench note: what % inhibition apPOL 180' did O=[N+]([O-])c1cc2c(cc1CN1CCN(c3cccc(Cl)c3)CC1)OCO2 show?
Given back: -4.543

Asked: Bench note: what % inhibition apPOL 180' did COc1ccc(NC(=O)Cn2ccc3c(=O)[nH]ccc32)cc1 [Molecule 13, COc1ccc(cc1)NC(=O)Cn1ccc2c1cc[nH]c2=O] show?
Given back: 7.549

Asked: Bench note: what % inhibition apPOL 180' did O=C(Nc1nnc(-c2cccs2)o1)c1ccc([N+](=O)[O-])o1 show?
Given back: -4.583

Asked: Bench note: what % inhibition apPOL 180' did CC1=NNC(=O)C1Oc1ccc(Cl)cc1Cl (stereo not drawn) show?
Given back: -9.633

Asked: Bench note: what % inhibition apPOL 180' did CCCCC(=O)N1CCc2c(nc3cc(-c4ccccc4Cl)[nH]n3c2=O)C1 show?
Given back: 4.447

Asked: Bench note: what % inhibition apPOL 180' did CN(C)C=C1SCc2ccccc2C1=O show?
Given back: -5.416

Asked: Bench note: what % inhibition apPOL 180' did CSC(C)C(=O)C=CN(C)C (stereo not drawn) show?
Given back: -9.951

Asked: Bench note: what % inhibition apPOL 180' did COc1cc(NC(=O)c2ccccc2)c(OC)cc1NC(=O)Cc1cccs1 show?
Given back: 4.503

Asked: Bench note: what % inhibition apPOL 180' did O=C(O)c1ccc(-c2nc3cc(-c4ccc5nc(-c6ccc(C(=O)O)cc6)[nH]c5c4)ccc3[nH]2)cc1 show?
Given back: 30.2265

Asked: Bench note: what % inhibition apPOL 180' did CN(C)C1C(c2ccccc2)=C(c2ccccc2)SC(c2ccccc2)C1[N+](=O)[O-] (stereo not drawn) show?
Given back: 12.7714

Asked: Bench note: what % inhibition apPOL 180' did OC(C#Cc1ccccc1)c1ccco1 (stereo not drawn) show?
Given back: 25.3082

Asked: Bench note: what % inhibition apPOL 180' did O=C1C(=Cc2ccncc2)Oc2c1ccc1c2CN(Cc2ccc3c(c2)OCO3)CO1 show?
Given back: 33.6281

Asked: Bench note: what % inhibition apPOL 180' did CCCCOC(=O)CCCCCN1C(=O)C(=Cc2ccc(OC)cc2)SC1=S show?
Given back: 11.5498

Asked: Bench note: what % inhibition apPOL 180' did COc1ccc(S(=O)(=O)/N=C2\NC(=O)/C(=C3\C(=O)Nc4ccc([N+](=O)[O-])cc43)S2)cc1 show?
Given back: -1.681

Asked: Bench note: what % inhibition apPOL 180' did Nc1c(S(=O)(=O)O)cc(Nc2ccccc2)c2c1C(=O)c1ccccc1C2=O show?
Given back: 9.027

Asked: Bench note: what % inhibition apPOL 180' did COc1ccc(C(=O)N2CCc3c(nc4cc(-c5ccccc5Cl)[nH]n4c3=O)C2)cn1 show?
Given back: 3.47

Asked: Bench note: what % inhibition apPOL 180' did Cc1ccc(NC(=O)Cn2ccc3c(=O)[nH]ccc32)cc1F [Molecule 48, O=C(Cn1ccc2c1cc[nH]c2=O)Nc1ccc(c(c1)F)C] show?
Given back: -4.79

Asked: Bench note: what % inhibition apPOL 180' did CC(C)(C)OC(=O)COc1ccc2cc(-c3ccccc3)c(=O)oc2c1 show?
Given back: 14.8656

Asked: Bench note: what % inhibition apPOL 180' did Cc1ccccc1C(=O)N1CCc2c(nc3cc(-c4ccccc4)[nH]n3c2=O)C1 show?
Given back: -3.248

Asked: Bench note: what % inhibition apPOL 180' did COCC(=O)Nc1c(-c2cccc(F)c2)nc2cc(C)ccn12 show?
Given back: 8.4449

Asked: Bench note: what % inhibition apPOL 180' did CC(NC(=O)Cc1cc(=O)[nH]c(SCc2cccc(Cl)c2)n1)c1ccccc1 (stereo not drawn) show?
Given back: -10.8936

Asked: Bench note: what % inhibition apPOL 180' did CSC1=C(C#N)C(=C(C#N)C#N)NC(c2ccccc2)=N1 [Molecule 2, CSc1nc([nH]c(=C(C#N)C#N)c1C#N)c1ccccc1] show?
Given back: 23.1824

Asked: Bench note: what % inhibition apPOL 180' did CCSc1nnc(NC(=O)Cc2csc(NC(=O)c3cnccn3)n2)s1 show?
Given back: -16.9778

Asked: Bench note: what % inhibition apPOL 180' did Cc1cccc2c(C(=O)NC(C)C)cc(N(C)C)nc12 show?
Given back: -0.7995

Asked: Bench note: what % inhibition apPOL 180' did Cc1ccc2c(C(=O)NCCc3cccnc3)cc(NC(=O)C(C)C)cc2n1 show?
Given back: -3.235

Asked: Bench note: what % inhibition apPOL 180' did CN1CC(=Cc2ccco2)C(=O)C(=Cc2ccco2)C1 show?
Given back: 8.893
